Parameter Cell Health Toxcity Profile CMI (Cell membrane integrity): see the listing below.
# Test system: HL60 cells
# Measurement notes: AsedaSciences SYSTEMETRIC Cell Health Screen (flow cytometry toxicity profiling)
# Details: SYSTEMETRIC Cell Health Screen; assay n=2
Give your answer as a number; write no unit.

Previously resolved entries follow.
Compound structure: C#Cc1cccc(Nc2c(C#N)cnc3ccc(I)cc23)c1
Number: 1.00

Compound structure: C#Cc1cccc(Nc2c(C#N)cnc3ccc(F)cc23)c1
Number: 0.99

Compound structure: C#Cc1cccc(Nc2c(C#N)cnc3cc(Cl)ccc23)c1
Number: 0.25

Compound structure: C#Cc1cccc(Nc2c(C#N)cnc3ccc(Br)cc23)c1
Number: 1.00

Req: I am curious: what Cell Health Toxcity Profile CMI (Cell membrane integrity) value has been reported for C#Cc1cccc(Nc2c(C#N)cnc3ccccc23)c1 ?
Resp: 1.00

Req: Consider the compound C#Cc1cccc(Nc2c(C#N)cnc3cc(Br)ccc23)c1 and give its measured Cell Health Toxcity Profile CMI (Cell membrane integrity).
Resp: 0.88

Req: Using the record for C#Cc1cccc(Nc2c(C#N)cnc3ccc(OC)cc23)c1 , report its Cell Health Toxcity Profile CMI (Cell membrane integrity).
Resp: 0.0039
